Listing: binding signal of selected binders
- study.system: ZIF-ZnF-GAC (serine-finger linker) (artificial)
- Sequence (chain, as listed by the source): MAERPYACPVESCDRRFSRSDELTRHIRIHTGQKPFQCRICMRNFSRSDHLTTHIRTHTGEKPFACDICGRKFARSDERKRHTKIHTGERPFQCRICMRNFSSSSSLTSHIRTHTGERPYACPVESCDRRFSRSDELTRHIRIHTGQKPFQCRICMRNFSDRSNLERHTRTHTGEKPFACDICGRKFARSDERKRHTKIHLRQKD
- measurement.notes: EMSA
- condition.context: label: 32P
endpoint: binding signal

| binder | measured.result |
| --- | --- |
| Z5G (dsDNA) DNA 1: GCGGACGCGCTAGTGCGTGGGCG DNA 2: CGCCCACGCACTAGCGCGTCCGC | ≥ 500 fold stronger than bsA |
| Z2G (dsDNA) DNA 1: GCGGACGCGGTGCGTGGGCG DNA 2: CGCCCACGCACCGCGTCCGC | ≥ 500 fold stronger than bsA |
| Z4G (dsDNA) DNA 1: GCGGACGCGTAGTGCGTGGGCG DNA 2: CGCCCACGCACTACGCGTCCGC | ≥ 500 fold stronger than bsA |
| Z3G (dsDNA) DNA 1: GCGGACGCGAGTGCGTGGGCG DNA 2: CGCCCACGCACTCGCGTCCGC | ≥ 500 fold stronger than bsA |

The measurements presented in this section are drawn from patent US20030119023.
